This collection of values is drawn from patent US20240382471A1.

- tested-on: UniProt P43220
- experiment-notes: GLP1R cAMP assay (HTRF cAMP detection, agonist activity)
- Format: cell-based
- Parameters: host or cells: Flp-In-293
- study-conditions: Flp-In-293-GLP1R cells, 30 min at 37° C., read-out: EC50 (nM) Assay 1
- Sequence (P43220 24-463, species assumed): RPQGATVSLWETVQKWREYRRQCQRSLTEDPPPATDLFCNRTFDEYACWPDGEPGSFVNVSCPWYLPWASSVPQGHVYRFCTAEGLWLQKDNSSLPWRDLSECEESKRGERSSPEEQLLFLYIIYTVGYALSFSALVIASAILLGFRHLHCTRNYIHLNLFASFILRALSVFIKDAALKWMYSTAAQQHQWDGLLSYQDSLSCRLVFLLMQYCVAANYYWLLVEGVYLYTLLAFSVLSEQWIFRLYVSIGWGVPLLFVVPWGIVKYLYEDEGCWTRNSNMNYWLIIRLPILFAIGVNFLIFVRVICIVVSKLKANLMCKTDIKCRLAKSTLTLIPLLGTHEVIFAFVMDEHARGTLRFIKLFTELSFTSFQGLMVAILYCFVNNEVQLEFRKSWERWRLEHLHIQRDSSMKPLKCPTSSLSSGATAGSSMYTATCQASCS
quantity-measured: EC50 (nM)
Report the figure in nM without appending any unit label.

N#Cc1ccc(COc2cccc(N3C4CCC3CN(Cc3nc5ccc(C(=O)O)cc5n3C[C@@H]3CCCO3)C4)n2)c(F)c1 [Compound 2-32] | 3.25
N#Cc1ccc(COc2cccc(N3CC4CN(Cc5nc6ccc(C(=O)O)cc6n5C[C@@H]5CCO5)CC4C3)n2)c(F)c1 (stereo partly drawn) [Compound 2-20] | 1.84
N#Cc1ccc(COc2cccc(N3CC4CCC(C3)N4Cc3nc4ccc(C(=O)O)cc4n3C[C@@H]3CCO3)n2)c(F)c1 [Compound 2] | 1.22
O=C(O)c1ccc2nc(CN3CCC4(c5cccc(OCc6ccc(Cl)cc6F)n5)CC4C3)n(C[C@@H]3CCO3)c2c1 (stereo partly drawn) [Compound 1-5] | 0.03

Query block: Give the reported EC50 for this molecule. N#Cc1ccc(COc2cccc(N3C4CCC3CN(Cc3nc5ccc(C(=O)O)cc5n3C[C@@H]3CCO3)C4)n2)cc1 [Compound 2-38]
Result block: 0.458

Query block: Complete the entry with EC50 for O=C(O)c1ccc2nc(CN3CC4CCC(C3)N4c3cccc(OCc4ccc(Cl)cc4F)n3)n(C[C@@H]3CCO3)c2c1 [Compound 2-39]
Result block: 0.346

Query block: Note EC50 for the molecule shown: N#Cc1ccc(COc2cccc(C34CCN(Cc5nc6ccc(C(=O)O)cc6n5C[C@@H]5CCO5)CC3C4)n2)cc1F (stereo partly drawn) [Compound 1-7]
Result block: 0.175

Query block: // fetch EC50 given entry N#Cc1ccc(COc2cccc(C34CCN(Cc5nc6ccc(C(=O)O)cc6n5C[C@@H]5CCO5)CC3C4)c2)c(F)c1 (single isomer, unassigned) [Compound 1-9-A]
Result block: 1.01

Query block: Supply recorded EC50 for N#Cc1ccc(COc2ccnc(C34CCN(Cc5nc6ccc(C(=O)O)cc6n5C[C@@H]5CCO5)CC3C4)n2)c(F)c1 (single isomer, unassigned) [Compound 1-11-A] here.
Result block: 0.995

Query block: Consider the molecule N#Cc1ccc(COc2cccc(N3CC4CCC(C3)N4Cc3nc4ccc(C(=O)O)cc4n3C[C@@H]3CCO3)c2)c(F)c1 [Compound 2-18] and give its recorded EC50.
Result block: 1.17

Query block: Give EC50 for N#Cc1ccc(COc2cccc(N3C4CCC3CN(Cc3nc5ccc(C(=O)O)cc5n3C[C@@H]3CCO3)C4)c2)c(F)c1 [Compound 2-35]
Result block: 2.79

Query block: Supply reported EC50 belonging to this molecule: N#Cc1ccc(COc2cccc(C34CCN(Cc5nc6ccc(C(=O)O)cc6n5C[C@@H]5CCO5)CC3C4)n2)c(F)c1 (single isomer, unassigned) [Compound 1-1-B]
Result block: 0.035

---

- tested-on: GLP1R (Homo sapiens)
- experiment-notes: GLP1R/CRE-Luc luciferase reporter gene assay (agonist activity)
- Format: cell-based
- Parameters: host or cells: HKE293 (so in the source)
- study-conditions: HKE293-Human GLP1R/CRE-luc cells, 5 h at 37° C., read-out: EC50 (nM) Assay 2
- Sequence (P43220 24-463): as the sequence (P43220 24-463, species assumed) above
List of EC50 values.
The response must be a number in nM with no trailing unit.

Solved cases (5 shown):
CCn1cncc1Cn1c(CN2CCC3(c4cccc(OCc5ccc(C#N)cc5OC)n4)CC3C2)nc2ccc(C(=O)O)cc21 (stereo not drawn) [Compound 1-44] | 0.3
COc1cc(C#N)ccc1COc1ccnc(C23CCN(Cc4nc5c(OC(C)C)cc(C(=O)O)cc5n4C[C@@H]4CCO4)CC2C3)n1 (stereo partly drawn) [Compound 1-42] | 6.5
N#Cc1ccc(COc2cccc(C34CCN(Cc5nc6c(F)cc(C(=O)O)cc6n5C[C@@H]5CCO5)CC3C4)n2)c(F)c1 (stereo partly drawn) [Compound 1-10] | 31.2
COc1cc(C#N)ccc1COc1cccc(C23CCN(Cc4nc5c(F)cc(C(=O)O)cc5n4C[C@@H]4CCO4)CC2C3)n1 (stereo partly drawn) [Compound 1-23] | 3.05
COc1cc(C#N)ccc1COc1nc(C23CCN(Cc4nc5c(OC)cc(C(=O)O)cc5n4C[C@@H]4CCO4)CC2C3)ncc1C (stereo partly drawn) [Compound 1-33] | 105

# evaluate next
Query block: Supply recorded EC50 for COc1cc(C(=O)O)cc2c1nc(CN1CCC3(c4nccc(OCc5ccc(C#N)cc5OC(C)C)n4)CC3C1)n2C[C@@H]1CCO1 (stereo partly drawn) [Compound 1-40] here.
Result block: 22.1
